pIC50: recorded values
- Target: acetylcholinesterase enzyme from Electrophoruselectricus (AChE enzyme from electric eel) (Electrophorus electricus)
- Construct: purchased Sigma
- Assay Details: biochemical
- Stated Conditions: Ellman's method, AChE from electric eel, triplicate, five concentrations; read-out: AChE inhibition (IC50 ± SD)
pIC50: −log10 of the molar value.
Measurement Label: pIC50

{"Smiles Notation": "N#Cc1c(-c2cccc3ccccc23)c2c([nH]c1=O)/C(=C/c1cccc3ccccc13)CNC2", "Measured Result": 5.16}
{"Smiles Notation": "N#Cc1c(-c2ccc(Cl)cc2)c2c([nH]c1=O)/C(=C/c1ccc(Cl)cc1)CNC2", "Measured Result": 5.41}
{"Smiles Notation": "Cc1ccccc1/C=C1\\CNCc2c1[nH]c(=O)c(C#N)c2-c1ccccc1C", "Measured Result": 5.14}
{"Smiles Notation": "COc1ccccc1/C=C1\\CNCc2c1[nH]c(=O)c(C#N)c2-c1ccccc1OC", "Measured Result": 5.67}
{"Smiles Notation": "N#Cc1c(-c2ccccc2)c2c([nH]c1=O)/C(=C/c1ccccc1)CNC2", "Measured Result": 4.95}
{"Smiles Notation": "Cc1ccc(/C=C2\\CNCc3c2[nH]c(=O)c(C#N)c3-c2ccc(C)cc2)cc1", "Measured Result": 5.15}
{"Smiles Notation": "N#Cc1c(-c2ccccc2Br)c2c([nH]c1=O)/C(=C/c1ccccc1Br)CNC2", "Measured Result": 4.74}
{"Smiles Notation": "N#Cc1c(-c2ccc(Cl)cc2Cl)c2c([nH]c1=O)/C(=C/c1ccc(Cl)cc1Cl)CNC2", "Measured Result": 4.61}
{"Smiles Notation": "N#Cc1c(-c2ccc(F)cc2)c2c([nH]c1=O)/C(=C/c1ccc(F)cc1)CNC2", "Measured Result": 4.85}
{"Smiles Notation": "N#Cc1c(-c2ccccc2Cl)c2c([nH]c1=O)/C(=C/c1ccccc1Cl)CNC2", "Measured Result": 4.82}

----------
- Target: acetylcholinesterase enzyme from Electrophoruselectricus (AChE enzyme from electric eel) (Electrophorus electricus, UniProt O42275)
- Construct: purchased Sigma
- Sequence (O42275 24-633): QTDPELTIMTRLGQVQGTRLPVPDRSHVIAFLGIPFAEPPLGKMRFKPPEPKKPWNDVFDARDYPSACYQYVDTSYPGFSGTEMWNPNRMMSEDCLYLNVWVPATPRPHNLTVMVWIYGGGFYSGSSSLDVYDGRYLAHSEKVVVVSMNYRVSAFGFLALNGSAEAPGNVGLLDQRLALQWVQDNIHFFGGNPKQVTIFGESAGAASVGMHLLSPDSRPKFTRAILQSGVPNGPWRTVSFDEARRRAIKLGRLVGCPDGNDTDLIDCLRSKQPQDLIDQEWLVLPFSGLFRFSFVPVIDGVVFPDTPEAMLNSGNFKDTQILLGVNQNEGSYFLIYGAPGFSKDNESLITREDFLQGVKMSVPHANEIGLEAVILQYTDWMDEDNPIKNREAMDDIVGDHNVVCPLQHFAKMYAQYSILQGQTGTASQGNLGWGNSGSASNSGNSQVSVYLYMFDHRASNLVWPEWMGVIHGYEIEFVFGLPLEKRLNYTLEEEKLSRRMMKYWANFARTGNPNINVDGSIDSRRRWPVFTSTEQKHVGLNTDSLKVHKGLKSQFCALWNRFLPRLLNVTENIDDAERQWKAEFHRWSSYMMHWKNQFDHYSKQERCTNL
- Assay Details: biochemical
pIC50: −log10 of the molar value.
Measurement Label: pIC50

{"Molecule": "N#Cc1c(-c2cccc([N+](=O)[O-])c2)c2c([nH]c1=O)/C(=C/c1cccc([N+](=O)[O-])c1)CNC2 [4g]", "Measurement Label": "pIC50", "Measured Result": 4.77}
